Molecular target: PDE4A1A (Homo sapiens)
Sequence (P27815 1-647 isoform P27815-4): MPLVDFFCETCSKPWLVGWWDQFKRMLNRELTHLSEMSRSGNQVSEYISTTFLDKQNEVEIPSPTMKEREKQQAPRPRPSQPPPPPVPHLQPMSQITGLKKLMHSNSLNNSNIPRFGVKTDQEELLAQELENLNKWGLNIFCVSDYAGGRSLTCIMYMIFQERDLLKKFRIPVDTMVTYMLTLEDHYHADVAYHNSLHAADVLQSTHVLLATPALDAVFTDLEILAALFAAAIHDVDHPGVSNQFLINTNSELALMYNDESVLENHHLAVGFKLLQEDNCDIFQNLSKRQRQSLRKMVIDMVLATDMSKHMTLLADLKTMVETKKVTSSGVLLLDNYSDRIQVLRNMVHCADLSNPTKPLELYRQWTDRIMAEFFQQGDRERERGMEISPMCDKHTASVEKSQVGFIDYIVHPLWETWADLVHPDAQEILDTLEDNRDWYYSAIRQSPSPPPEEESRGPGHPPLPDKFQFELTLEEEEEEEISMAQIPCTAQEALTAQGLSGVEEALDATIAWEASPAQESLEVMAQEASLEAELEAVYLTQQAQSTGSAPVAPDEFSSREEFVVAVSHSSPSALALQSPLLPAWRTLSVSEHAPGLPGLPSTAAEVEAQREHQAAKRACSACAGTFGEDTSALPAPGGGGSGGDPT
Experiment: IMAP fluorescence polarization assay with purified PDE4A1A
Assay type: biochemical
Parameters: purchased BPS Bioscience
Conditions: Table 3; three separate experiments (SD provided); read-out: PDE4A IC50
Field 'label' (enum: criterion met / criterion not met). Set to criterion met when IC50 is strictly under 7 nM; else criterion not met.

As a guide, the following entries are already answered.
> print(dat)
                                   molecule     assigned.label
1  COc1ccc(OC)c(-c2nnc3n2N=C(c2ccc(OC)c(OC4CCOC4)c2)CS3)c1 (racemic)      criterion met
2  COc1ccc(OC)c(-c2nnc3n2N=C(c2ccc(OC(F)F)c(OCC4CC4)c2)CS3)c1  criterion not met
3  COc1ccc(OC)c(-c2nnc3n2N=C(c2ccc(OC)c(OCC4CC4)c2)CS3)c1      criterion met
4  COc1ccc(OC)c(-c2nnc3ccc(-c4ccc(OC)c(O[C@@H]5CCOC5)c4)nn23)c1      criterion met
5  COc1ccc(OC)c(-c2nnc3n2N=C(c2ccc(OC)c(OC4CCCC4)c2)CS3)c1  criterion not met
6  COc1ccc(OC)c(-c2nnc3n2N=C(c2ccc(OC)c(O[C@@H]4CCOC4)c2)CS3)c1      criterion met

Next item in the queue.
Req: # strict comparison: is reported IC50 < 7 nM? input = COc1ccc(OC)c(-c2nnc3ccc(-c4ccc(OC)c(O[C@H]5CCOC5)c4)nn23)c1
Resp: criterion not met
